experimental-target: UniProtKB Q5XXA6
run-description: Automated whole-cell patch clamp (Qpatch) assay to detect TMEM16A activity in recombinant cells
Format: cell-based
test-settings: 3.33 μM test compound; % increase of baseline TMEM16A current; FRT cells stably expressing human TMEM16A (TMEM16Aabc variant); intracellular calcium at EC20
Procedure: Automated Whole-Cell Patch Clamp Assay to Detect TMEM16A Activity in Recombinant Cells […] Compound activity was quantified by measuring the increase in current upon compound addition and expressing this as a percentage increase of baseline TMEM16A current level. […] Peak TMEM16A current at +70 mV was plotted as a function of time over the assay period. Baseline current (IBL) was measured after a period of stabilisation. […]
Each entry below carries its recorded % Potentiation @ 3.33 μM Avg.

{"molecule": "C#CC(C)(C)NC(=O)c1cc(NC(=O)Cc2cccc3cc[nH]c23)ccn1", "% Potentiation @ 3.33 μM Avg (%)": 64}
{"molecule": "CC(C)(C)NC(=O)c1cc(NC(=O)[C@@H]2CCc3ccccc32)ccn1 (single isomer, unassigned) [Example 21a]", "% Potentiation @ 3.33 μM Avg (%)": 99}
{"molecule": "CC(C)(C)NC(=O)c1cc(NC(=O)C2(c3cccc(Cl)c3)CC2)ccn1", "% Potentiation @ 3.33 μM Avg (%)": 145}
{"molecule": "O=C(Cc1cc(Cl)ccc1O)Nc1ccnc(C(=O)N[C@@]2(CO)CCOC2)c1 (single isomer, unassigned) [Example 35b]", "% Potentiation @ 3.33 μM Avg (%)": 190}
{"molecule": "O=C(Cc1cc(Cl)ccc1O)Nc1ccnc(C(=O)NC23CCC(F)(C2)C3)c1", "% Potentiation @ 3.33 μM Avg (%)": 1}

src = patent US11364246B2
